Test system: human monocyte THP-1 cell line
Conditions: resazurin assay, 48 h incubation
Listed compounds paired with reported GIC THP-1 Cell Line
READOUT LABEL: GIC THP-1 Cell Line

COMPOUND	OBSERVED RESULT
CN(Cc1cnc2nc(N)nc(N)c2n1)c1ccc(C(=O)N[C@@H](CCC(=O)O)C(=O)O)cc1 [Methotrexate, reference compound]	0.975 mg/L
O=C(/C=C/c1ccc([N+](=O)[O-])o1)c1ccc(N2CCOCC2)cc1 [Compound 1]	62.5 mg/L
O=C(/C=C/c1ccc([N+](=O)[O-])o1)c1ccc(N2CCCCC2)cc1 [Compound 2]	62.5 mg/L
CCN(CC)c1ccc(C(=O)/C=C/c2ccc([N+](=O)[O-])o2)cc1 [Compound 3]	15.6 mg/L
